# System: LOX IMVI melanoma
# assayRemarks: NCI-60 one-dose screen, 48 h (100 = growth as untreated, 0 = no growth, -100 = all killed)
# conditionSummary: 10 µM unless noted
This is part of a sample that, as a whole, favours compounds with a hit. Of some 83,000 tested, about 20% had one in any assay.
Simple rule here: growth less than 30% is 1, otherwise 0.

[[record]]
compound = "CCCCCCCCCCCCCCCC[N+]1(C)CCN(SN2CC[N+](C)(CCCCCCCCCCCCCCCC)CC2)CC1"
assaysystem = "LOX IMVI melanoma"
classname = 0

[[record]]
compound = "CCOC(=O)c1nc2c3ccccc3ccn2c1C(=O)OCC"
assaysystem = "LOX IMVI melanoma"
classname = 0

[[record]]
compound = "COc1cc(C2C3CC4CCCC[C@H]4N3[C@@]3(C(=O)Nc4cc(Cl)ccc43)C2C(=O)c2nc3ccccc3[nH]2)cc(OC)c1OC (some centres undefined)"
assaysystem = "LOX IMVI melanoma"
classname = 0

[[record]]
compound = "Cn1cc(CC2CC(=O)N(c3ccccc3)C2=O)sc1=NC(=O)c1ccccc1 (centres undefined)"
assaysystem = "LOX IMVI melanoma"
classname = 0

[[record]]
compound = "O=Cc1cc2ccccc2nc1Oc1ccc(C(F)(F)F)cc1"
assaysystem = "LOX IMVI melanoma"
classname = 0


Input: Confirm or reject: growth of "O=S(=O)(NCCNc1nccc(-c2c(-c3cccc(O)c3)nc3occn23)n1)c1ccccc1" lies strictly below 30%
Output: 0

Input: Would you kindly verify if growth of "N#Cc1c(-c2ccccc2)nc2c(c(-c3ccccc3)nn2-c2ccccc2)c1-c1ccc(O)cc1" is strictly less than 30%?
Output: 1

Input: Quick check: growth of CC1=C(C(=O)/C=C/c2ccc(N(C)C)cc2)C(c2ccccc2)NC(=S)N1 (centres undefined) under 30%?
Output: 0

Input: growth strictly < 30% for this compound? "Clc1ccc(-c2ccc(CNCC3CCNCC3)o2)c(-c2ccccc2)c1"
Output: 1

====

# Test system: SNB-19 CNS
# assayRemarks: NCI-60 one-dose screen, 48 h (100 = growth as untreated, 0 = no growth, -100 = all killed)
# conditionSummary: 10 µM unless noted
This is part of a sample that, as a whole, favours compounds with a hit. Of some 83,000 tested, about 20% had one in any assay.
attributeMeasured: growth (%)
Express your answer in %, writing the number without its unit.

[[record]]
compound = "CCCCCN1C=C/C(=C\\C(=O)N(C)c2ccc(Oc3ccccc3)cc2)c2ccccc21"
valueobserved = 88.2

[[record]]
compound = "COC(=O)C1=C(C(=O)ON)C2C=CC1(C(Cc1ccccc1)Nc1ccccc1)O2 (centres undefined)"
valueobserved = 106

[[record]]
compound = "C[C@H]1[C@H](C)CC[C@]2(C(=O)NCC#CCN3CCN(C)CC3)CC[C@]3(C)C(=CC[C@@H]4[C@@]5(C)Cc6c([nH]c7ccccc67)C(C)(C)[C@@H]5CC[C@]43C)[C@H]12"
valueobserved = 83.2


growth for SNB-19 CNS with input "CCOC(=O)[C@@H]1CCCN(S(=O)(=O)c2ccc(S(=O)(=O)N(CC)CC)c(F)c2)C1" equals 69.2

Observed growth on SNB-19 CNS, entry CN(C)c1ccc(C2C(C#N)=C(/N=C/c3ccccc3)Oc3c2ccc2ccccc32)cc1 (centres undefined) , equals 74.2

====

# Test system: SK-MEL-5 melanoma
# assayRemarks: NCI-60 one-dose screen, 48 h
# conditionSummary: 10 µM unless noted
About 83,000 compounds went through this panel and 20% of them were active in at least one assay; those are over-represented in the sample as a whole. Calls of active or inactive are those of the source. The calls were made as follows: active = growth percent below 10; inactive = the rest.
Pick one: y for active, n for inactive

Input: Please state the recorded outcome for this compound: "Cc1nc2ccc(Cl)cn2c1-c1nnc(SCc2ccc([N+](=O)[O-])cc2)o1"
Output: n

Input: Each compound tested received a call. Report the one for "Cc1cccc(NC(=O)Nc2ccc(-c3ccc4c(c3)NC(=O)/C4=C\c3ccc[nH]3)cc2)c1" .
Output: n

Input: Look up the recorded call for "C=CCN1C(=O)/C(=C/C(=O)OC)S/C1=N\NC(=O)c1cc2ccc1/C=C\c1ccc(cc1)/C=C\2" in this test.
Output: n

Input: Test call, this compound: "CCCNC(=O)Oc1ccc(/C(=C(\C)c2ccccc2)c2ccc(OCCCN(C)C)cc2)cc1"
Output: n

Input: Hi, do you know how "CNC(=O)c1cccc(Cn2nc(C)c(NC(=O)c3ccc(COc4ccc(C(F)(F)F)cc4C)cc3)c2C)c1" came out in this test?
Output: y

Input: What did the test return for "O=C(Cc1ccccc1)NNc1nc(Cl)nc(N2CCN(C(c3ccccc3)c3ccccc3)CC2)n1" ?
Output: n

Input: Dear all, I need the recorded test outcome for "Cc1ccccc1NS(=O)(=O)c1cccc(C(=O)Nc2ccc(Br)cc2)c1" , thank you.
Output: y

Input: // return assay outcome for "COc1ccc(/C=C/C(=O)Nc2cc(/C=C\c3cc(OC)c(OC)c(OC)c3)cc(OC)c2OC)cc1OC"
Output: y

Input: // param item: "O=[N+]([O-])c1ccc(N=Nc2cc(S(=O)(=O)O)c3cccc(S(=O)(=O)O)c3c2O)cc1" ; yields the recorded call
Output: n

====

# Test system: MOLT-4 leukemia
# assayRemarks: NCI-60 one-dose screen, 48 h (100 = growth as untreated, 0 = no growth, -100 = all killed)
# conditionSummary: 10 µM unless noted
# Procedure: Growth inhibition of the MOLT-4 human tumor cell line is measured as a screen for anti-cancer activity. Cells are grown in 96 well plates and exposed to the test compound for 48 hours. Compounds are tested at a single concentration, which is 10^-5 M for most compounds. The reported endpoint is percent growth (GI% or GIPRCNT), where numbers from 0 - 100% represent growth inhibition, and numbers from -100% - 0 represent cell death. For example, a value of 40 represents 60% growth inhibition. […]
The panel holds about 83,000 compounds, 20% with a hit somewhere; the sample as a whole holds those more often.
// returns F unless growth is strictly below 90%, in which case T

[[record]]
compound = "COc1ccc(CCn2cncc2-c2c[nH]c3ccccc23)cc1"
classname = "F"


Input: Answer whether the compound "Cc1c(C(=O)NCCC(=O)NO)sc2ncnc(Nc3ccc(F)c(Cl)c3)c12" has growth strictly less than 90%
Output: F

Input: Does O=C1OC(Cc2ccccc2)C1c1ccccc1 (stereo not given) have growth strictly under 90%?
Output: F

Input: Is it true that growth reported for "COc1c(Cl)c2c(c(OC)c1OC)-c1ccc(SC)c(=O)cc1[C@@H](NC(=O)OCC(F)(F)F)CC2" is less than 90%?
Output: T

====

Reported growth by item:
# Test system: SK-MEL-28 melanoma
# assayRemarks: NCI-60 one-dose screen, 48 h (100 = growth as untreated, 0 = no growth, -100 = all killed)
# conditionSummary: 10 µM unless noted
# Method: Growth inhibition of the SK-MEL-28 human tumor cell line is measured as a screen for anti-cancer activity. Cells are grown in 96 well plates and exposed to the test compound for 48 hours. Compounds are tested at a single concentration, which is 10^-5 M for most compounds. The reported endpoint is percent growth (GI% or GIPRCNT), where numbers from 0 - 100% represent growth inhibition, and numbers from -100% - 0 represent cell death. For example, a value of 40 represents 60% growth inhibition. […]
The panel holds about 83,000 compounds, 20% with a hit somewhere; the sample as a whole holds those more often.
Numbers only here, please. The scale is %.

Record excerpt, results attached:
[[record]]
compound = "COc1cc(/C=C\\C(=O)O)ccc1OCc1ccccc1"
assaysystem = "SK-MEL-28 melanoma"
attributemeasured = "growth"
valueunits = "%"
valueobserved = 110

[[record]]
compound = "O=C1CC(=O)OC(c2ccc([N+](=O)[O-])cc2)O1"
assaysystem = "SK-MEL-28 melanoma"
attributemeasured = "growth"
valueunits = "%"
valueobserved = -17.3

[[record]]
compound = "COc1cc2nc(-c3ccc(C(F)(F)F)cc3)cc(OCCCN3CCCC3)c2cc1OC"
assaysystem = "SK-MEL-28 melanoma"
attributemeasured = "growth"
valueunits = "%"
valueobserved = 71.9

[[record]]
compound = "CC1(C)c2[nH]c3ccccc3c2C[C@]2(C)[C@H]3C(=O)C=C4[C@@H]5C[C@@](C)(C(N)=O)CC[C@]5(C)CC[C@@]4(C)[C@]3(C)CC[C@@H]12"
assaysystem = "SK-MEL-28 melanoma"
attributemeasured = "growth"
valueunits = "%"
valueobserved = 93.3

[[record]]
compound = "Cc1ccc(C(=O)/C(=C\\c2ccc([N+](=O)[O-])cc2)S(=O)Cc2ccc(Cl)cc2)cc1 (centres undefined)"
assaysystem = "SK-MEL-28 melanoma"
attributemeasured = "growth"
valueunits = "%"
valueobserved = 46.6


The measured growth associated with "CCOC(=O)c1cc(C(=O)c2ccc(Br)cc2)n2ccc(/C=C/c3cc[n+](CC(=O)c4ccc(OC)cc4)cc3)cc12" reads 106

// recorded growth for "O=C(NCCNc1nccc(-c2c(-c3cccc(F)c3)nc3sccn23)n1)c1ccc(Cl)cc1" : 64.9

// recorded growth for "CCCCN1C=CCN(CCCC)C1" : 40

Lab book: growth of "COc1cc(-c2csc(NC(=O)c3cc(F)cc(C(F)(F)F)c3)n2)cc(OC)c1OC" noted as 50.3

Record "Cc1ccc(-c2nc3ccccn3c2/C=C2/C(=O)Nc3cc(Cl)ccc32)cc1" , field growth: 91.8

The recorded growth for "O=C(CNCCN1CCOCC1)N1c2cccc3cccc(c23)N(C(=O)CNCCN2CCOCC2)C1c1cn(-c2ccccc2)nc1-c1cccc([N+](=O)[O-])c1" is 64

For O=[N+]([O-])CC(c1ccccc1F)c1c[nH]c2ccccc12 (centres undefined) the compound record lists growth as 78.2

// growth value for "O=Cc1cc2ccccc2nc1Oc1ccc(C(F)(F)F)cc1" : 107

Noted for "CNC(=O)c1cncc(Cn2nc(C)c(NC(=O)c3ccc(COc4ccc(C(F)(F)F)cc4C)cc3)c2C)c1" : its growth reads 81.6
